- TARGET: GABA-A receptors
- ASSAY DETAILS: GABA-A Agonist binding assay (NovaScreen), [3H]-GABA displacement
- CONDITION NOTES: converted from μg/ml; read-out: IC50 for paeoniflorin converted to molarity
MEASURED ENDPOINT: IC50

Given C[C@@]12C[C@@]3(O)O[C@@H](O1)[C@]1(COC(=O)c4ccccc4)[C@H]3C[C@@]12O[C@@H]1O[C@H](CO)[C@@H](O)[C@H](O)[C@H]1O , state its recorded IC50.
~625 nM
